system: SNB-19; assay: NCI tumour cell line growth inhibition, 48 h
The source made the active and inactive calls. No stated cut-off is given here; in the data, active = GI50 up to about 1.1 µM and inactive = higher.
READOUT LABEL: GI50

Asked: Quick one: GI50 of NNC(=O)CCC(=O)Nc1cc(Cl)c(Cl)cc1Cl ?
Given back: > 100 µM (inactive)

Asked: # iterate: O=C(N/N=C/c1ccc(Cl)cc1)c1cc(I)cc(I)c1O
Given back: > 100 µM (inactive)

Asked: # iterate: N#CC12C(=O)NC(=O)C1(C#N)C1C=CC2CC1 (configuration not stated)
Given back: > 100 µM (inactive)

Asked: # iterate: COc1nc(NC2OC(COC(C)=O)C(OC(C)=O)C(OC(C)=O)C2OC(C)=O)c(/N=C(\C)C(C)=O)c(=O)n1C (configuration not stated)
Given back: > 100 µM (inactive)

Asked: # iterate: CC1=C(NC(=O)/C(=N/NC(=S)NN)C2C(=O)CC(C)(C)CC2=O)C(=O)c2ccccc2C1=O
Given back: 13 µM (inactive)

Asked: # iterate: CSc1ncc2c(n1)-c1ccccc1OC2N1CCCC1 (configuration not stated)
Given back: > 100 µM (inactive)

Asked: # iterate: CC1(C)N/C(=C\C=O)C(C)(C)N1O
Given back: > 100 µM (inactive)

====

system: SK-MEL-28; assay: NCI tumour cell line growth inhibition, 48 h
Calls of active or inactive are those of the source. Rule as the data show it: active = GI50 up to about 1.1 µM and inactive = higher.
READOUT LABEL: GI50

Asked: Quick one: GI50 of COC(=O)c1cc(C)ccc1CC(Cc1ccc(C)cc1)C(=O)OC (stereo unspecified) ?
Given back: 67.1 µM (inactive)

Asked: # iterate: C=C1CCC2(C(C)=O)COC1(C)O2 (stereo unspecified)
Given back: > 100 µM (inactive)

Asked: # iterate: CC[C@]12C=CCN3CC[C@@]4(c5cc(N=O)c(OC)cc5N(C)[C@H]4[C@@](O)(C(=O)NC(Cc4c[nH]c5ccccc45)C(=O)OC)[C@@H]1O)[C@@H]32 (stereo partly specified)
Given back: 31.3 µM (inactive)

Asked: # iterate: COc1ccc(/C=C/c2cnnc3ccccc23)cc1OC
Given back: > 10 µM (inactive)

Asked: # iterate: CSc1ncc2c(C#N)c3n(C)c4ccccc4n3c(=O)c2n1
Given back: > 100 µM (inactive)

Asked: # iterate: O=c1ncccn1C1C=C(CO)C(O)C1O (stereo unspecified)
Given back: > 50 µM (inactive)

Asked: # iterate: CNCCCCN(C)/[N+]([O-])=N\O
Given back: > 100 µM (inactive)

Asked: # iterate: O=C1c2ccccc2C(=O)C12CCc1ccccc12
Given back: > 100 µM (inactive)

Asked: # iterate: CCC1C(=O)C(O)[C@H]2[C@@H]3C(O)CC4=CC(=O)CC[C@]4(C)[C@H]3CC[C@]12C (stereo partly specified)
Given back: > 50 µM (inactive)

Asked: # iterate: COC1(OC)N=C(N)C2(C#N)C(c3ccccc3)NC3=C(CCC3)C12C#N (stereo unspecified)
Given back: > 100 µM (inactive)

Asked: # iterate: O=C(NC(CO)CO)c1ccc2cc(C(=O)N3CC(CCl)c4ccc([N+](=O)[O-])cc43)[nH]c2c1 (stereo unspecified)
Given back: > 100 µM (inactive)

====

Assign GI50 to each entry below.
tested on: DU-145; assay: NCI tumour cell line growth inhibition, 48 h
Activity calls are given as the source filed them. No stated cut-off is given here; in the data, active = GI50 up to about 1.1 µM and inactive = higher.

Asked: Notebook: pull reported GI50 for DU-145, entry Oc1cc(-c2ccccc2)nc2cc3c(cc12)OCO3
Given back: 79.4 µM (inactive)

Asked: # iterate: CCOC(=O)C(C)c1nc2cc(F)c(N3CCOCC3)cc2[nH]c1=O (stereo unspecified)
Given back: > 100 µM (inactive)

Asked: # iterate: Cc1c(NC(=S)Nc2ccc([N+](=O)[O-])cc2)c(=O)n(-c2ccccc2)n1C
Given back: > 100 µM (inactive)

Asked: # iterate: COC(=O)[C@]1(NC(=O)c2ccccc2)C[C@H]1C=O
Given back: > 100 µM (inactive)

Asked: # iterate: O=C(Nc1cccc(Cl)c1)Nn1cnnc1
Given back: > 100 µM (inactive)

Asked: # iterate: COc1ccc(/C=N/NC(=O)c2cnc3[nH]c(=O)n(C)c(=O)c3c2)cc1
Given back: > 100 µM (inactive)
